Where do these numbers come from? They come from paper PMC2970562.

Target: human 15-PGDH (Homo sapiens, UniProt P15428)
Construct: comprising residues 3–256 of the human HPGD gene (GenBank identifier: 1203982); His6 (GHHHHHH, behind the TEV site) (C, cleaved yes); made in house; host or cells: E. coli BL21(DE3)-R3
Sequence (P15428 3-256): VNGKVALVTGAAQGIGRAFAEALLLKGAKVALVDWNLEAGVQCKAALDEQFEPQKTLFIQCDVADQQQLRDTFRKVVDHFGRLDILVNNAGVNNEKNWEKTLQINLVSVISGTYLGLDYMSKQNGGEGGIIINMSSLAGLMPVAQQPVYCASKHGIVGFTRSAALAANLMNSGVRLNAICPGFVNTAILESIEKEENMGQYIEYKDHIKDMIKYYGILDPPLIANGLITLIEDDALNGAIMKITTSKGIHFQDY
Assay: qHTS and 24-point re-test: fluorescence assay of NAD+ reduction to NADH on PGE2 oxidation (PubChem AID 894)
Format: biochemical
Settings: re-test of qHTS hits, Figure 2; read-out: IC50 from re-testing
Measured Endpoint: IC50

Please supply the value of reported IC50 for the item COc1ccc(N2CCN(C(=O)c3ccc(CSc4ccccc4)cc3)CC2)cc1 [Compound 6] > 10 µM
